The reported numbers originate from PubChem BioAssay (NCI).

TGI: recorded values
System: SF-539 CNS
Assay: NCI tumour cell line growth inhibition, 48 h

Give me measured TGI, please, for this compound: `CC(C)(C)OC(=O)c1ccc(NCc2cc(O)ccc2O)cc1`
2.73 µM

---

System: COLO 205 colon
Assay: NCI tumour cell line growth inhibition, 48 h
MEASURED PROPERTY: TGI

Example entries and their recorded answers appear below.
{"columns": ["MOLECULE", "ASSAY SYSTEM", "TEST RESULT"],
 "data": [
  ["COC(=O)c1c(O)ccc2[nH]c(C)c(C#N)c12", "COLO 205 colon", "> 100 µM"],
  ["COc1ccc2c(-c3cc4ccccc4o3)cc(=O)oc2c1", "COLO 205 colon", "> 100 µM"],
  ["CC1(C)CCc2cc3c(cc2O1)OCCC3=O", "COLO 205 colon", "> 100 µM"],
  ["COc1ccc(CN2C(=O)C(=O)N(C)C2=O)c2ccccc12", "COLO 205 colon", "> 10 µM"],
  ["Nc1n[nH]c2ccccc12", "COLO 205 colon", "> 100 µM"]
]}

Give me measured TGI, please, for this molecule: COC(=O)[C@H]1C=C[C@H](OC2OC(COC(C)=O)C(OC(C)=O)C(OC(C)=O)C2OC(C)=O)n2c(=O)n(-c3ccccc3)c(=O)n21 (stereo partly specified)
3.6 µM

Give me measured TGI, please, for this molecule: COC(=O)NC/C=C\c1nc(CC/C=C\C(=O)OC2CC3CC(=O)O[C@@H](/C=C/CC(C)C)C[C@@H]4CCC(C)C(C[C@@H](OC)CC(C2)O3)O4)co1 (stereo partly specified)
98.4 µM

Give me measured TGI, please, for this molecule: `Cc1cccc(NC(Nc2cccc(C)c2)=C(C(Cl)=C(Cl)Cl)[N+](=O)[O-])c1`
28.3 µM

Give me measured TGI, please, for this molecule: `CCOP(=O)(OCC)c1cc(-c2ccccc2)ccc1N`
> 100 µM

Give me measured TGI, please, for this molecule: FC(F)(F)c1ccc2c(Nc3cccc(C4CC(c5ccccc5)=NN4c4ccc(Cl)cc4)c3)ccnc2c1 (stereo unspecified)
> 100 µM

Give me measured TGI, please, for this molecule: `C/C(=N\Nc1nc2ccccc2s1)c1cccnn1`
> 100 µM

Give me measured TGI, please, for this molecule: `c1ccc(-c2ccc(N=NN3CCCC3)cc2)cc1`
> 100 µM

Give me measured TGI, please, for this molecule: `CCOC(=O)Cc1nn2c(=O)cc(C)nc2s1`
> 100 µM
